# Target: His6-AspH315–758 (human aspartate/asparagine-β-hydroxylase, AspH) (Homo sapiens)
# Construct: N-Terminally His6-tagged human AspH315–758 (His6-AspH315–758) was produced in E. coli BL21 (DE3) cells; made in house; host or cells: E. coli BL21 (DE3), pET-28a(+) vector
# Experiment summary: SPE-MS AspH inhibition assay (LOPAC screen at fixed 20 μM and IC50 dose-response), hydroxylation of cyclic peptide hFX-CP101–119
# Type: biochemical
# Measurement setup: LOPAC compound at fixed 20 uM; plate 1, normalised to DMSO and 2,4-PDCA controls
Structures can show the parent of a compound that is named as a salt.
Each item that follows carries a reported Plate 1 (% inhibition).

{"columns": ["Compound", "Plate 1 (% inhibition) / %"],
 "data": [
  ["NCCCNCCSP(=O)(O)O", -14.28],
  ["CC(C)(Oc1ccc(C2CC2(Cl)Cl)cc1)C(=O)O (stereo not shown) [Ciprofibrate]", -0.63],
  ["C[N+](C)(C)CC#CCOC(=O)Nc1cccc(Cl)c1.[Cl-]", -1.57],
  ["N=C(N)c1ccc(N)cc1 [4-Aminobenzamidine dihydrochloride]", -9.05],
  ["CC(=O)N[C@@H](CS)C(=O)O", 6.30],
  ["CCCCCCCCCCCCCCCCCCc1ccc(C(=O)/C=C/C(=O)O)cc1", -7.39],
  ["O=C(O)C(O)C(O)C(=O)O.c1cnc2cc3c(cc2n1)[C@@H]1CNC[C@H]3C1 [Varenicline tartrate]", 66.93],
  ["Nc1ncnc2c1ncn2[C@@H]1O[C@H](CO)[C@@H](O)[C@H]1O", 4.27],
  ["CC(=O)c1ccc(S(=O)(=O)NC(=O)NC2CCCCC2)cc1 [Acetohexamide]", -6.36],
  ["NCCCCN=C(N)N [Agmatine sulfate]", -2.35]
]}

====

Each item that follows carries a reported Plate 3 (% conversion).
# Target: His6-AspH315–758 (human aspartate/asparagine-β-hydroxylase, AspH) (Homo sapiens)
# Construct: N-Terminally His6-tagged human AspH315–758 (His6-AspH315–758) was produced in E. coli BL21 (DE3) cells; made in house; host or cells: E. coli BL21 (DE3), pET-28a(+) vector
# Experiment summary: SPE-MS AspH inhibition assay (LOPAC screen at fixed 20 μM and IC50 dose-response), hydroxylation of cyclic peptide hFX-CP101–119
# Assay type: biochemical
# Measurement setup: LOPAC compound at 20uM, plate 3; conversion of substrate peptide
Counter-ions that a name gives are not always drawn.
Measurement kind: Plate 3 (% conversion)

{"columns": ["Molecule", "Measurement kind", "Value measured"],
 "data": [
  ["CC[C@H](C)C(=O)O[C@H]1CCC=C2C=C[C@H](C)[C@H](CC[C@@H]3C[C@@H](O)CC(=O)O3)[C@H]21 [Mevastatin]", "Plate 3 (% conversion)", "41.68%"],
  ["CNCCCC12CCC(c3ccccc31)c1ccccc12 [Maprotiline hydrochloride]", "Plate 3 (% conversion)", "42.77%"],
  ["CC(=O)[C@H]1CC[C@H]2[C@@H]3CCC4=CC(=O)CC[C@]4(C)[C@H]3CC[C@]12C [Progesterone]", "Plate 3 (% conversion)", "43.81%"],
  ["CN1C(C(=O)Nc2ccccn2)=C(O)c2ccccc2S1(=O)=O [Piroxicam]", "Plate 3 (% conversion)", "39.26%"],
  ["O=C(O)c1cccnc1Nc1cccc(C(F)(F)F)c1 [Niflumic acid]", "Plate 3 (% conversion)", "32.98%"],
  ["CC(C(=O)O)c1ccc(CC2CCCC2=O)cc1 (stereo not shown) [loxoprofen]", "Plate 3 (% conversion)", "35.95%"],
  ["CC(C)Cc1ccc([C@H](C)C(=O)O)cc1 [S(+)-Ibuprofen]", "Plate 3 (% conversion)", "38.99%"],
  ["CN1CCN2c3ccccc3Cc3ccccc3C2C1 (stereo not shown) [Mianserin hydrochloride]", "Plate 3 (% conversion)", "43.45%"],
  ["N.N.[Cl][Pt][Cl] [Cisplatin]", "Plate 3 (% conversion)", "31.15%"],
  ["CCN1/C(=C/C(C)=O)Sc2ccc(OC)cc21 [TG003]", "Plate 3 (% conversion)", "40.97%"]
]}

====

# Target: His6-AspH315–758 (human aspartate/asparagine-β-hydroxylase, AspH) (Homo sapiens, UniProt Q12797)
# Construct: N-Terminally His6-tagged human AspH315–758 (His6-AspH315–758) was produced in E. coli BL21 (DE3) cells; made in house; host or cells: E. coli BL21 (DE3), pET-28a(+) vector
# Sequence (Q12797 315-758): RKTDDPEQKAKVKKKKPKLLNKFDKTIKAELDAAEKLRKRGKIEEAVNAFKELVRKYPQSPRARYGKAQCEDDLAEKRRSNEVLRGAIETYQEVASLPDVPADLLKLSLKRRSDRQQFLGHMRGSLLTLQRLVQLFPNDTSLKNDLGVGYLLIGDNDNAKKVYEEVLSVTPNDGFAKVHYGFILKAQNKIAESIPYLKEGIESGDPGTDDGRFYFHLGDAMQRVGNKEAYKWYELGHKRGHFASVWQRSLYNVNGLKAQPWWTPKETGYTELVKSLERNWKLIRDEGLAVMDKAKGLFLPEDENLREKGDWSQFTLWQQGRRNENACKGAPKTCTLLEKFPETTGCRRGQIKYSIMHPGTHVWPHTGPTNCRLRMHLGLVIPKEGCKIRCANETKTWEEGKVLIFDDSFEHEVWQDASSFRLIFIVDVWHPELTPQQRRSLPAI
# Experiment summary: SPE-MS AspH inhibition assay (LOPAC screen at fixed 20 μM and IC50 dose-response), hydroxylation of cyclic peptide hFX-CP101–119
# Type: biochemical
# Measurement setup: 20 µM
Measurement kind: Plate 2 (% inhibition) (%)

{"columns": ["Compound", "Measurement kind", "Quantity unit", "Value measured"],
 "data": [
  ["C[N+]1(C)CCN(c2ccccc2)CC1.[I-]", "Plate 2 (% inhibition)", "%", -0.39],
  ["C#CCN[C@H](C)Cc1ccccc1.Cl [R-(-)-Desmethyldeprenyl hydrochloride]", "Plate 2 (% inhibition)", "%", -9.24],
  ["CNCC[C@H](Oc1ccc(C(F)(F)F)cc1)c1ccccc1.Cl [S-(+)-Fluoxetine hydrochloride]", "Plate 2 (% inhibition)", "%", -27.34],
  ["Cl.O=C(O)Cc1c[nH]cn1 [Imidazole-4-acetic acid hydrochloride]", "Plate 2 (% inhibition)", "%", -1.52],
  ["Cl.Cl.c1ccc(CCCN2CCN(CCOC(c3ccccc3)c3ccccc3)CC2)cc1 [GBR-12935 dihydrochloride]", "Plate 2 (% inhibition)", "%", -31.91],
  ["CC(C)[C@H]1CN[C@H](C(=O)O)[C@H]1CC(=O)O [Dihydrokainic acid]", "Plate 2 (% inhibition)", "%", 4.72],
  ["CN1CC[C@@]2(C)c3cc(O)ccc3N(C)[C@@H]12.O=C(O)/C=C/C(=O)O [(-)-Eseroline fumarate]", "Plate 2 (% inhibition)", "%", 48.52],
  ["NC(Cc1cc(O)c(O)cc1O)C(=O)O (racemic) [6-Hydroxy-DL-DOPA, reference compound]", "Plate 2 (% inhibition)", "%", 103.09]
]}

====

# Target: His6-AspH315–758 (human aspartate/asparagine-β-hydroxylase, AspH) (Homo sapiens, UniProt Q12797)
# Construct: N-Terminally His6-tagged human AspH315–758 (His6-AspH315–758) was produced in E. coli BL21 (DE3) cells; made in house; host or cells: E. coli BL21 (DE3), pET-28a(+) vector
# Experiment summary: SPE-MS AspH inhibition assay (LOPAC screen at fixed 20 μM and IC50 dose-response), hydroxylation of cyclic peptide hFX-CP101–119
# Assay type: biochemical
# Measurement setup: LOPAC compound at 20uM, plate 2; normalised to DMSO and 2,4-PDCA controls; read-out: Plate 2 (% inhibition)
Where a name gives a salt, the structure may show the parent alone.
Each item that follows carries a reported inhibition at 20 µM.

{"columns": ["Compound", "inhibition at 20 µM [%]"],
 "data": [
  ["CCC1(C2=NCCN2)Cc2ccccc2O1 (stereo not drawn) [Efaroxan hydrochloride]", 3.14],
  ["C[C@]12CCC(=O)C=C1CC[C@@H]1[C@@H]2[C@@H](O)C[C@@]2(C)[C@H]1CC[C@]2(O)C(=O)CO [Hydrocortisone]", -5.89],
  ["O=C1NCN(c2ccccc2)C12CCN(CCCC(c1ccc(F)cc1)c1ccc(F)cc1)CC2 [Fluspirilene]", -68.8],
  ["Nc1nc(O)c2ncn(COC(CO)CO)c2n1 [Ganciclovir]", 1.14],
  ["CC(C)(Sc1ccc(CCN(CCCCC2CCCCC2)C(=O)NC2CCCCC2)cc1)C(=O)O [GW7647]", 17.9],
  ["CCc1cccc2c3c([nH]c12)C(CC)(CC(=O)O)OCC3 (stereo not drawn) [Etodolac]", -2.84],
  ["NCCc1c[nH]c2ccc(O)cc12 [Serotonin hydrochloride]", 12.4],
  ["NC(=O)OCC(COC(N)=O)c1ccccc1 [Felbamate]", 3.82],
  ["O=C(O)Cc1ccccc1Nc1c(Cl)cccc1Cl [Diclofenac sodium]", 10.8],
  ["Cc1c2ccncc2c(C)c2c1[nH]c1ccccc12 [Ellipticine]", -29.9],
  ["NC(=O)CC[C@H](N)C(=O)O [L-Glutamine]", 2.77],
  ["CC(C)C(=O)Nc1ccc([N+](=O)[O-])c(C(F)(F)F)c1 [Flutamide]", -13.9],
  ["CC[N+](CC)(CC)CCOc1cccc(OCC[N+](CC)(CC)CC)c1OCC[N+](CC)(CC)CC [Gallamine triethiodide]", 6.21],
  ["O=C(O)CCc1ccc(NCc2cccc(Oc3ccccc3)c2)cc1 [GW9508]", 2.34],
  ["O=P(O)(O)C(Cl)(Cl)P(=O)(O)O [Clodronic acid, reference compound]", 101],
  ["Oc1ccc(C2CNCCc3c2cc(O)c(O)c3Cl)cc1 (stereo not drawn) [Fenoldopam bromide, reference compound]", 98.3],
  ["O=c1c2ccccc2[nH]c(=S)n1CCN1CCC(=C(c2ccc(F)cc2)c2ccc(F)cc2)CC1 [Diacylglycerol Kinase Inhibitor II]", 43.7],
  ["c1ccc(C2CC2)c(OCC2=NCCN2)c1 [Cirazoline hydrochloride]", -6.62]
]}
